Target: G/T mismatch-specific thymine DNA glycosylase (Homo sapiens) (UniProt Q13569)
Sequence (Q13569 whole entry): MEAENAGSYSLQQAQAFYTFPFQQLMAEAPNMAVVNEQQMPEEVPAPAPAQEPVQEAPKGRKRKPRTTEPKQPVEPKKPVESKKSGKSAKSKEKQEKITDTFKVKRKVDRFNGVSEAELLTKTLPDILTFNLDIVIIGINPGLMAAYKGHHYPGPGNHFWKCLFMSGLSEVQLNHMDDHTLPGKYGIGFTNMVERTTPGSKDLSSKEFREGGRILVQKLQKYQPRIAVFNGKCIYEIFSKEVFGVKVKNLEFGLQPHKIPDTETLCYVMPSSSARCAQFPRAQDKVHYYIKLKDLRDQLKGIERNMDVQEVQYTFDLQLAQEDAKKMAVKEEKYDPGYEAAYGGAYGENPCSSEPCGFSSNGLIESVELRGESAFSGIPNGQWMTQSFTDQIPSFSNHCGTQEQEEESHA
Conditions: Compound Concentration 10.0 uM, Hit No
Description: Inhibition of TDG by quantifying inhibition of TDG-mediated cleavage and dissociation of quenched duplex DNA oligonucleotides, measured as fluorescence at 594 nm. To generate a functional strand incision and increase turn-over this assay is coupled to APE1.
READOUT TYPE: inhibition (%)
Numbers only, in %.

Use these answered entries as a reference point.
SMILES CODE	inhibition [%]
CC(C)(C)c1ccc(S(=O)(=O)Nc2ccc(Cl)cc2C(=O)c2cc[n+]([O-])cc2)cc1	-0.448
CNC[C@H](O)c1cccc(O)c1	-5.83
Cc1cccc(F)c1C(=O)Nc1cnc(-c2cc3c(cc2Cl)OC(F)(F)O3)cn1	-9.45
FC(F)(F)c1ccc(N2CCNCC2)nc1Cl	27.6

Quick batch: inhibition for everything below.
1. FC(F)c1nc2ccccc2n1-c1nc(N2CCOCC2)nc(N2CCOCC2)n1
2. Cc1cn([C@@H](C)CC#N)c(=O)c2cc(Cn3nc(C(F)F)cc3Cl)nn12

## Result
32.9
99.3

###

Biological target: N-glycosylase/DNA lyase (Homo sapiens) (UniProt O15527);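 further: OGG1 cleavage of a quenched duplex DNA oligonucleotide, coupled to APE1 for strand incision, read as fluorescence at 594 nm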
Sequence (O15527 whole entry): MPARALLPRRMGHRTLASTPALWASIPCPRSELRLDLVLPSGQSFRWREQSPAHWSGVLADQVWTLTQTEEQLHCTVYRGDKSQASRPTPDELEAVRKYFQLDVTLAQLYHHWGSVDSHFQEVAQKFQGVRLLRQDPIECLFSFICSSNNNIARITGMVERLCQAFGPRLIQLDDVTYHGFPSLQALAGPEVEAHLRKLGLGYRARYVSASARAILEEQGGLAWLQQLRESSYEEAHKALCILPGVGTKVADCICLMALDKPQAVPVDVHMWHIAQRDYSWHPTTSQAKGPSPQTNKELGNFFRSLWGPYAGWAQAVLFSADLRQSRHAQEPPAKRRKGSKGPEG
Conditions: Compound Concentration 10.0 uM, Hit No
Description: Inhibition of OGG1 by quantifying inhibition of OGG1-mediated cleavage and dissociation of quenched duplex DNA oligonucleotides, measured as fluorescence at 594 nm. To generate a functional strand incision and increase turn-over this assay is coupled to APE1.
READOUT TYPE: inhibition (%)
Give bare numbers, in %.

COMPOUND	NUMBER
CCC(=N\O)/C(C)=C/c1ccc(F)c(C)c1	16.2
C[C@H](CO)Nc1nc(SCc2cccc(Cl)c2F)nc2[nH]c(=O)sc12	5.5
Cc1cccc(-c2cnc3occ(-c4ccc(C(=O)O)c(C5CCCC5)c4)c3c2)c1	66.5

Quick batch: inhibition for everything below.
1. CC[C@H](C)C(=O)O[C@H]1C[C@@H](C)C=C2C=C[C@H](C)[C@H](CC[C@@H]3C[C@@H](O)CC(=O)O3)[C@H]21
2. O=C(O)Cc1cc(I)c(Oc2ccc(O)c(I)c2)c(I)c1
3. CC(C)Oc1ccc(-c2nn([C@@H](C)c3oc4ccc(F)cc4c(=O)c3-c3cccc(F)c3)c3ncnc(N)c23)cc1F
4. CCCCCNC(=O)NS(=O)(=O)c1cc([N+](=O)[O-])ccc1NC1CCCCC1
5. CCCN(CCC)CCc1cccc2c1CC(=O)N2

## Result
1: 11.4; 2: 32.3; 3: 8.77; 4: 8.51; 5: -5.66

Quick batch: inhibition for everything below.
1. O=C(O)c1cccc(/C=C2/C[C@@H]3[C@@H](/C=C/[C@H](O)C4CCCCC4)[C@H](O)C[C@@H]3O2)c1
2. COc1ccc(CCN(C)CCCC(C#N)(c2cc(OC)c(OC)c(OC)c2)C(C)C)cc1OC (stereo unspecified)
3. N[C@](CC1c2ccccc2Oc2ccccc21)(C(=O)O)[C@H]1C[C@@H]1C(=O)O

## Result
1. -8.69
2. -7.76
3. -5.15

###

Target: G/T mismatch-specific thymine DNA glycosylase (Homo sapiens) (UniProt Q13569);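 further: human TDG cleavage of quenched duplex DNA oligonucleotides coupled to APE1, strand release read as fluorescence at 594 nm, inhibition of TDG activity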
Conditions: Compound Concentration 10.0 uM, Hit No
Where a SMILES comes first, the peptide text is derived from it.
Please respond with reported inhibition for every item in the list.
Answers are plain numbers, in %.

Use these answered entries as a reference point.
COMPOUND	inhibition (%)
O=C1O[C@]2(CC[C@H](C(=O)Nc3ccn(-c4ccccc4F)n3)CC2)c2cnccc21	1.4
NCCCCN(Cc1nc2ccccc2[nH]1)[C@H]1CCCc2cccnc21	0.598
CCC(=O)Nc1cccc(Oc2nc(Nc3ccc(N4CCN(C)CC4)cc3OC)ncc2Cl)c1	56.8
CCCCCCCCCCCCC/C=C/[C@@H](O)[C@@H](N)COP(=O)(O)O	-7.17
CCCC(=O)N[C@@H](Cc1ccc(O)cc1)C(=O)NCCCCCCCNCCCCN	12.1

Quick batch: inhibition for everything below.
1. c1cc(OCCCN2CCCCC2)ccc1CN1CCCCC1
2. CCCCC1=NC2(CCCC2)C(=O)N1Cc1ccc(-c2ccccc2-c2nnn[nH]2)cc1
3. CC(C)C[C@@H]1NC(=O)[C@@H](C(C)C)NC(=O)[C@@H]2CCCN2C(=O)[C@@H](CC(=O)O)NC(=O)[C@@H](Cc2c[nH]c3ccccc23)NC1=O (HELM PEPTIDE1{L.[dW].[dD].P.[dV]}$PEPTIDE1,PEPTIDE1,1:R1-5:R2$$$V2.0)

## Result
1. 13.9
2. 11.8
3. 0.54

Quick batch: inhibition for everything below.
1. O=C(O)c1n[nH]c2c1C[C@H]1C[C@@H]21
2. Cc1cccc([C@H](C)c2c[nH]cn2)c1C

## Result
1: -5.48; 2: 18.4

###

Please respond with reported inhibition for every item in the list.
Molecular target: Adenine DNA glycosylase (Homo sapiens);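 further: human MUTYH activity read as 594 nm fluorescence from cleavage and release of a quenched DNA duplex, coupled with APE1 for strand incision, lower signal meaning inhibition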
Conditions: Compound Concentration 10.0 uM, Hit No
Description: Inhibition of MUTYH by quantifying inhibition of MUTYH-mediated cleavage and dissociation of quenched duplex DNA oligonucleotides, measured as fluorescence at 594 nm. To generate a functional strand incision and increase turn-over this assay is coupled to APE1.
One number for each entry, in %.

Use these answered entries as a reference point.
COMPOUND	OUTPUT UNIT	inhibition
COc1cccc([C@@H](C)NCCCc2ccccc2Cl)c1	%	-7.79
COCCCS(=O)(=O)c1cc(C)c(-c2ccc(F)c3c2CC[C@H]3Oc2ccc3c(c2)OC[C@H]3CC(=O)O)c(C)c1	%	-1.52
CS(=O)(=O)c1cccc(NC(=O)N(Cc2ccc(C(=O)Nc3nnn[nH]3)cc2)c2ccc(C3CCCCC3)cc2)c1	%	44.3
CCCN[C@H]1CCc2nc(N)sc2C1	%	13.4
CCC(=O)NC[C@@H]1C[C@H]1c1cccc2c1CCO2	%	2.71

Quick batch: inhibition for everything below.
1. CCCC(=O)N[C@@H](Cc1ccc(O)cc1)C(=O)NCCCCCCCNCCCCN
2. c1ccc2c(c1)CCC[C@H]2Nc1nc2ccccc2[nH]1
3. CN(C)[C@@H]1CCN(c2cc(-c3ccccc3)nc3ccnn23)C1
4. COc1ccc(Oc2cc(NCCC(F)(F)F)c3ncc(-c4ccc(C(=O)NC5CC5)c(C)c4)n3n2)c(F)c1F
5. CCCCCN1C(=O)C2(COc3cc4c(cc32)OCO4)c2ccccc21 (stereo not given)

## Result
[-4.41, 2.96, 10.5, -2.54, 13.2]

###

Please respond with reported inhibition for every item in the list.
Biological target: Single-strand selective monofunctional uracil DNA glycosylase (Homo sapiens) (UniProt Q53HV7);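 further: enzymatic SMUG1 assay coupled with APE1, reading fluorescence at 594 nm released when a quenched double-stranded DNA oligonucleotide substrate is cleaved and separated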
Sequence (Q53HV7 whole entry): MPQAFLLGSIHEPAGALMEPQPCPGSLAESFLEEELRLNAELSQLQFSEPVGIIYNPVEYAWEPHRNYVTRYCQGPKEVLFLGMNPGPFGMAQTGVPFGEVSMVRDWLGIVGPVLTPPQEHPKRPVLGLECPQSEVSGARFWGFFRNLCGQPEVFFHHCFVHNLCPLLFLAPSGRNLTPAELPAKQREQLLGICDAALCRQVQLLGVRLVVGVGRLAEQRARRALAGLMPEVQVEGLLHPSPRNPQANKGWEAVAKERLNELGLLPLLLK
Conditions: Compound Concentration 10.0 uM, Hit No
Description: Inhibition of SMUG1 by quantifying inhibition of SMUG1-mediated cleavage and dissociation of quenched duplex DNA oligonucleotides, measured as fluorescence at 594 nm. To generate a functional strand incision and increase turn-over this assay is coupled to APE1.
Answers are plain numbers, in %.

Use these answered entries as a reference point.
SMILES CODE	NUMBER
N#Cc1ccc(Cn2ccc(NC(=O)Cc3ccc(C4(C(F)(F)F)CC4)cc3)n2)nc1	-0.24
O=C(Nc1ccc(-n2nc(C(F)(F)F)cc2C(F)(F)F)cc1)c1ccncc1F	-4.65
CC1(C)CCC[C@]2(C)[C@@H](C=O)C(C=O)=CC[C@@H]12	16.1
CC(C)c1cc(Oc2c(Cl)cc(-n3nc(C#N)c(=O)[nH]c3=O)cc2Cl)n[nH]c1=O	5.92

Consider the additional compound presented here.
## Task What measured inhibition goes with `CCNC(=O)NS(=O)(=O)c1sc(CC(C)C)cc1-c1ccc(Cn2c(-c3ccccc3)nc(OC)c2C=O)cc1` ?
## Result 36.2

###

Biological target: Endonuclease 8-like 1 (Homo sapiens);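 further: fluorescence at 594 nm from quenched duplex DNA oligonucleotides released by NEIL1 cleavage and strand separation, reported as reduction of this enzyme activity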
Details: Compound Concentration 10.0 uM, Hit No
Description: Inhibition of NEIL1 by quantifying inhibition of NEIL1-mediated cleavage and dissociation of quenched duplex DNA oligonucleotides, measured as fluorescence at 594 nm.
Please respond with reported inhibition for every item in the list.
Numbers only, in %.

Use these answered entries as a reference point.
COMPOUND	OUTPUT UNIT	inhibition
O=C(COc1cccc2ccccc12)Nc1cc(Cl)ccc1C(=O)O	%	6.38
CC(/C=C1\SC(=S)N(CCCC(=O)Nc2ccc(C(=O)O)c(O)c2)C1=O)=C\c1ccccc1	%	11.6
Cc1ccccc1C(=O)Nc1ccc(C(=O)N2CCCC(N(C)C)c3ccccc32)cc1 (stereo not given)	%	11.6
CN1CCN(c2ccc(/C=C(\C#N)c3ccccc3Br)cc2)CC1	%	-2.11

Consider the additional compound presented here.
## Task For Endonuclease 8-like 1 (Homo sapiens), provide inhibition of `NS(=O)(=O)c1cncc(-c2nc(NCc3ccccn3)c3c(-c4ccccc4)cccc3n2)c1` please.
## Result 10.4

###

Target: Uracil-DNA glycosylase (Homo sapiens);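 further: UNG excision on a quenched double-stranded DNA oligo probe, with APE1 added for strand incision and turnover, read as fluorescence at 594 nm as strands separate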
Conditions: Compound Concentration 10.0 uM, Hit No
Description: Inhibition of UNG by quantifying inhibition of UNG-mediated cleavage and dissociation of quenched duplex DNA oligonucleotides, measured as fluorescence at 594 nm. To generate a functional strand incision and increase turn-over this assay is coupled to APE1.
READOUT TYPE: inhibition (%)
Answers are plain numbers, in %.

Use these answered entries as a reference point.
COMPOUND	NUMBER
CCCCCCCC/C=C\CCCCCCCC(=O)NCc1ccc(O)c(OC)c1	-4.89
COc1cc2nc(N3CCN(C(=O)COc4c(OC)cccc4C(C)C)CC3)nc(N)c2cc1OC	3.87
NC(=O)NN=Cc1ccc(Oc2ccc(F)cc2)cc1	-5.79

Quick batch: inhibition for everything below.
1. CCOC(=O)c1c(C)[nH]c2ccc3c(c12)CN1CCc2cc(OC)ccc2C1O3 (stereo not drawn)
2. O=C1C[C@@H]2OCC=C3CN4CC[C@]56c7ccccc7N1[C@H]5[C@H]2[C@H]3C[C@H]46
3. O=C(O)COc1cccc(-c2ocnc2-c2nc(-c3ccccc3)c(-c3ccccc3)o2)c1
4. CC(C)NC(=O)N1CC[C@H](NC2=Nc3cc(F)ccc3N(CC(F)F)c3ccc(Cl)cc32)C1
5. Cc1ccccc1C(=O)Nc1ccc(C(=O)N2CCCC(O)c3cc(Cl)ccc32)c(C)c1 (stereo not drawn)
6. Cc1ccc2nc(NCCN)c3ncc(C)n3c2c1
7. O=S1(=O)NCN(C2CC2)c2ccc(F)cc21

## Result
1: -1.04; 2: -3.11; 3: -2.35; 4: 8.59; 5: -8.3; 6: 14.9; 7: -3.37
